Below: a set of entries, each annotated with reported MIC.
- System: Mycobacterium tuberculosis
- experimental_protocol: Antitubercular activity against Mycobacterium tuberculosis H37Rv ATCC 27294 after 7 days by microplate alamar blue assay
- Format: functional
- condition_label: H37Rv ATCC 27294, 168 h

Answered examples (4):
compound	MIC
CC1(C)CC[C@]2(C(=O)O)CC[C@]3(C)C(=CC[C@@H]4[C@@]5(C)CC[C@H](O)C(C)(C)[C@@H]5CC[C@]43C)[C@@H]2C1 [OLEANOLIC_ACID]	96.5 µM
CC1(C)CC[C@]2(C(=O)O)CC[C@]3(C)C(=CC[C@@H]4[C@@]5(C)CC[C@@H](O)C(C)(C)[C@@H]5CC[C@]43C)[C@@H]2C1	> 200 µM
CC[C@H](CC[C@@H](C)[C@H]1CC[C@H]2[C@@H]3CC=C4CC(=O)CC[C@]4(C)[C@H]3CC[C@]12C)C(C)C [BETA-SITOSTENONE]	39.5 µM
CO[C@H]1/C=C/O[C@@]2(C)Oc3c(C)c(O)c4c(O)c(c(/C=N/N5CCN(C)CC5)c(O)c4c3C2=O)NC(=O)/C(C)=C\C=C\[C@H](C)[C@H](O)[C@@H](C)[C@@H](O)[C@@H](C)[C@H](OC(C)=O)[C@@H]1C [RIFAMPIN]	0.14 µM

// CC(=O)O[C@H]1CC[C@]23C[C@]24CC[C@]2(C)[C@@H]([C@H](C)CCC=C(C)C)CC[C@@]2(C)[C@@H]4CC[C@H]3[C@]1(C)C(=O)O [BONIANIC ACID A] : MIC value = 34.8 µM

###

- Test system: Vero
- experimental_protocol: Cytotoxicity against african green monkey Vero cells after 72 hrs by MTS assay
- Assay type: cell-based
- condition_label: Chlorocebus sabaeus
measured_property: IC50 (µM)
Quick reminder: number only, in µM, skip the unit.

Hey, Vero data for CC(=O)O[C@H]1CC[C@]23C[C@]24CC[C@]2(C)[C@@H]([C@H](C)CCC(=O)C(C)C)CC[C@@]2(C)[C@@H]4CC[C@H]3[C@]1(C)C(=O)O : IC50 came out at 74.2
